pKd: −log10 of the molar value.
The following molecules each carry a recorded pKd for CV-IIL (Chromobacterium violaceum, UniProt Q7NX84).
Endpoint name: pKd

Molecule: OC[C@H]1OC(O)[C@@H](O)[C@@H](O)[C@@H]1O (stereo partly drawn) [D-mannose]
Result: 4.59

Molecule: C[C@@H]1OC(O)[C@@H](O)[C@H](O)[C@@H]1O (stereo partly drawn) [L-fucose]
Result: 5.09
